- Assay System: T1, human programmed cell death protein 1 (hPD-1) C93S (aa 24-167) (Homo sapiens, UniProt Q15116, C93S)
- T1 construct: made as a fusion with a TEV site and human Fc; the Fc was cut off with TEV protease; source: Expi293F, purified (Protein A, TEV cleavage of Fc, SEC; monomer fractions); not shown: Fc (human), C-terminal, cleaved
- T1 sequence (Q15116 24-167 C93S): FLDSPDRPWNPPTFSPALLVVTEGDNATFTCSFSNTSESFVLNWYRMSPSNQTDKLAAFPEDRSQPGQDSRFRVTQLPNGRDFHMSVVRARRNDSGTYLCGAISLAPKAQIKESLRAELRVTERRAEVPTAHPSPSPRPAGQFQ
- Experimental Protocol: SPR; Carterra LSA; Fab from the ammonium sulfate precipitate of the culture supernatant immobilised on a NiHC200M chip; hPD-1 (1-1024 nM) or mPD-1-Fc (4-1024 nM) as analyte, fourfold dilution series, no regeneration; HBS-EP pH 7.4, 25 °C; medians over the spots of a construct, KD = koff/kon
- Condition Label: one partner purified
Experimental Readout: kon (M⁻¹ s⁻¹)
# number only, unit M⁻¹ s⁻¹ dropped from output

Short answer for toripalimab Fab L.H98A (Fab, V domains shown, as the heavy chain of Sm3; light chain of Sm3 with this change; numbers count from the chain's first residue; source: Brevibacillus, culture supernatant (ammonium sulfate precipitate); not shown: 6xHis, C-terminal, kept; 6xHN, C-terminal, kept) VH: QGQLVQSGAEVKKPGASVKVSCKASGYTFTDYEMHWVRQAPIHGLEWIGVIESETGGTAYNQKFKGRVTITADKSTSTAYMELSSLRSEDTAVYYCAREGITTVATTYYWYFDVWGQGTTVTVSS VL: DVVMTQSPLSLPVTLGQPASISCRSSQSIVHSNGNTYLEWYLQKPGQSPQLLIYKVSNRFSGVPDRFSGSGSGTDFTLKISRVEAEDVGVYYCFQGSAVPLTFGQGTKLEIK : kon was 22900

Short answer for toripalimab Fab L.P100K (Fab, V domains shown, as the heavy chain of Sm3; light chain of Sm3 with this change; numbers count from the chain's first residue; source: Brevibacillus, culture supernatant (ammonium sulfate precipitate); not shown: 6xHis, C-terminal, kept; 6xHN, C-terminal, kept) VH: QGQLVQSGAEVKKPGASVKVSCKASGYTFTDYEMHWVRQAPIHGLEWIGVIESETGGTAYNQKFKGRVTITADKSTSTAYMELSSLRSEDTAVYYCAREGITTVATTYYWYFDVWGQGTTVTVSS VL: DVVMTQSPLSLPVTLGQPASISCRSSQSIVHSNGNTYLEWYLQKPGQSPQLLIYKVSNRFSGVPDRFSGSGSGTDFTLKISRVEAEDVGVYYCFQGSHVKLTFGQGTKLEIK : kon was 6670

Short answer for toripalimab Fab L.V99G (Fab, V domains shown, as the heavy chain of Sm3; light chain of Sm3 with this change; numbers count from the chain's first residue; source: Brevibacillus, culture supernatant (ammonium sulfate precipitate); not shown: 6xHis, C-terminal, kept; 6xHN, C-terminal, kept) VH: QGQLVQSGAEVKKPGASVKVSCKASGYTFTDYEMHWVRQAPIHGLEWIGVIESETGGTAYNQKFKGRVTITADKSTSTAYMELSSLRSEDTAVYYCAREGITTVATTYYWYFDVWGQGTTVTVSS VL: DVVMTQSPLSLPVTLGQPASISCRSSQSIVHSNGNTYLEWYLQKPGQSPQLLIYKVSNRFSGVPDRFSGSGSGTDFTLKISRVEAEDVGVYYCFQGSHGPLTFGQGTKLEIK : kon was 8230

Short answer for toripalimab Fab L.R24A (Fab, V domains shown, as the heavy chain of Sm3; light chain of Sm3 with this change; numbers count from the chain's first residue; source: Brevibacillus, culture supernatant (ammonium sulfate precipitate); not shown: 6xHis, C-terminal, kept; 6xHN, C-terminal, kept) VH: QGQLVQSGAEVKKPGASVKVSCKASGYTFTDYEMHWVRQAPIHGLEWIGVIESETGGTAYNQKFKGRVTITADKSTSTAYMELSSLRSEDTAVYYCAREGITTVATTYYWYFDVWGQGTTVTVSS VL: DVVMTQSPLSLPVTLGQPASISCASSQSIVHSNGNTYLEWYLQKPGQSPQLLIYKVSNRFSGVPDRFSGSGSGTDFTLKISRVEAEDVGVYYCFQGSHVPLTFGQGTKLEIK : kon was 14400

More entries:
Short answer for toripalimab Fab H.T106Y (Fab, V domains shown, heavy chain of Sm3 with this change; numbers count from the chain's first residue; as the light chain of Sm3; source: Brevibacillus, culture supernatant (ammonium sulfate precipitate); not shown: 6xHis, C-terminal, kept; 6xHN, C-terminal, kept) VH: QGQLVQSGAEVKKPGASVKVSCKASGYTFTDYEMHWVRQAPIHGLEWIGVIESETGGTAYNQKFKGRVTITADKSTSTAYMELSSLRSEDTAVYYCAREGITTVAYTYYWYFDVWGQGTTVTVSS VL: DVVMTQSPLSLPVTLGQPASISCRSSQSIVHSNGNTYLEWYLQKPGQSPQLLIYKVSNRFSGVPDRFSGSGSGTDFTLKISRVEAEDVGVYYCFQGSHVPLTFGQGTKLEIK : kon was 21000
